Recorded values, source ChEMBL document CHEMBL4665778.

Target: Phosphatidylinositol 4,5-bisphosphate 3-kinase catalytic subunit gamma isoform (Homo sapiens, UniProt P48736)
Sequence (P48736 whole entry, canonical isoform): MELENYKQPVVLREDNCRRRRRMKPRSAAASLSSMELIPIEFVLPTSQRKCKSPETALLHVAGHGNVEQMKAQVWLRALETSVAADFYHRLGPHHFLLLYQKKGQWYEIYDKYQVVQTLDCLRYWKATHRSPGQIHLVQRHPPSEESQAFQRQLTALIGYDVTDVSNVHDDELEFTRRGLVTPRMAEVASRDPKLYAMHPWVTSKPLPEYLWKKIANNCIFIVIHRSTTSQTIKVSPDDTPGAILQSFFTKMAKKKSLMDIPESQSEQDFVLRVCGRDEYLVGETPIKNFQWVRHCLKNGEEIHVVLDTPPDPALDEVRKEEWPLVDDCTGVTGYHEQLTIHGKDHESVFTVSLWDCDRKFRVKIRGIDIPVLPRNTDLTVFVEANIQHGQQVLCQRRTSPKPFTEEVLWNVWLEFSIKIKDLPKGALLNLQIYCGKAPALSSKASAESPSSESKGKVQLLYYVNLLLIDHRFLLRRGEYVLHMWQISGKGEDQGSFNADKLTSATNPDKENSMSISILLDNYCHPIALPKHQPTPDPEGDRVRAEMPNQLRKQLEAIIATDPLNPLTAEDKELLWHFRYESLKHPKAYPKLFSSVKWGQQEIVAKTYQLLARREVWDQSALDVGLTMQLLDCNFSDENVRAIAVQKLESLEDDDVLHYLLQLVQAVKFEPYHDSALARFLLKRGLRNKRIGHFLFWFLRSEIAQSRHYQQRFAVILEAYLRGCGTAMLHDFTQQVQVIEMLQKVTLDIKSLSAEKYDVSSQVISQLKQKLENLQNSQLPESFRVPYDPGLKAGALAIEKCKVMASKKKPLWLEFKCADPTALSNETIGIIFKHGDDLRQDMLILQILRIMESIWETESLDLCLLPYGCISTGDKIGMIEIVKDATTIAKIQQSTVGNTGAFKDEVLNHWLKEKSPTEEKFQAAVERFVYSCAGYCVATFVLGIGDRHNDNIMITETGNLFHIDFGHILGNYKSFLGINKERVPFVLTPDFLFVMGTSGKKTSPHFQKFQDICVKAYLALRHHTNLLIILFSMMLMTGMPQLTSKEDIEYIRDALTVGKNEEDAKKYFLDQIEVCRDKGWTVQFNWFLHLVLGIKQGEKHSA
quantity: IC50 (nM)

Using the record for Cc1cc(-c2ccc3nc(N)c(-c4cnn(C)c4)n3n2)cc2c1C(=O)N([C@@H](C)C1CC1)C2 , state its measured IC50.
17

Using the record for Cc1c(-c2c(N)nn3ccc(-c4cc5c(c(C(F)(F)F)c4)C(=O)N([C@@H](C)C4CC4)C5)nc23)cnn1C , state its measured IC50.
6.6

I. Cc1cc(-c2ccn3ncc(-c4cnn(C)c4)c3n2)cc2c1C(=O)N([C@@H](C)C1CC1)C2
II. CC(=O)Nc1nn2ccc(-c3cc(C)c4c(c3)CN([C@@H](C)C3CC3)C4=O)nc2c1-c1cnn(C)c1
I need your help: which of the pair I , II has higher IC50? Respond with the label that goes with your answer.
II
(II: 429 nM, I: 9.1 nM)

----------
Reported IC50 for target or system PI3-kinase p110-delta/p85-alpha (Homo sapiens, UniProt O00329), by entry.
quantity: IC50 (µM)

Example compounds with recorded IC50:
Using the record for CNS(=O)(=O)c1cc(-c2ccn3nc(NC(C)=O)cc3n2)cc2c1C(=O)N([C@@H](C)C1CC1)C2 , state its measured IC50.
4.55

Using the record for Cc1cc(-c2c(N)nn3ccc(-c4cc(C)c5c(c4)CN([C@@H](C)C4CC4)C5=O)nc23)ccc1C(=O)O , state its measured IC50.
0.21

A. Cc1cc(-c2ccn3nc(N)c(-c4ccc(CC(=O)O)cc4)c3n2)cc2c1C(=O)N([C@@H](C)C1CC1)C2
B. Cc1cc(-c2ccn3nc(N)c(-c4ccncn4)c3n2)cc2c1C(=O)N([C@@H](C)C1CC1)C2
Pick one, A or B : lowest reported IC50. Respond with the label that goes with your answer.
B

a. Cc1ncc(-c2c(N)nn3ccc(-c4cc(C)c5c(c4)CN([C@@H](C)C4CC4)C5=O)nc23)o1
b. CC(C)c1cc(-c2c(N)nn3ccc(-c4cc5c(c(C(F)(F)F)c4)C(=O)N([C@@H](C)C4CC4)C5)nc23)ccc1C(=O)O
Pick one, a or b : lowest reported IC50. Respond with the label that goes with your answer.
b
(b: 0.125 µM, a: 3.25 µM)

----------
Target: Phosphatidylinositol 4,5-bisphosphate 3-kinase catalytic subunit gamma isoform (Homo sapiens, UniProt P48736)
pIC50: −log10 of the molar value.
quantity: pIC50

Example compounds with recorded pIC50:
Using the record for CC(=O)Nc1cc2nc(-c3cc4c(c(C(F)(F)F)c3)C(=O)N([C@@H](C)C3CC3)C4)ccn2n1 , state its measured pIC50.
8.66

Using the record for Cc1cc(-c2ccn3nc(N)c(-c4ccc(CC(=O)O)cc4)c3n2)cc2c1C(=O)N([C@@H](C)C1CC1)C2 , state its measured pIC50.
8.68

Using the record for Cc1cc(-c2ccn3nc(N)c(-c4ccn[nH]4)c3n2)cc2c1C(=O)N([C@@H](C)C1CC1)C2 , state its measured pIC50.
7.36

Using the record for C[C@@H](C1CC1)N1Cc2cc(-c3ccn4nc(N)c(-c5cnn(C)c5)c4n3)cc(C(F)(F)F)c2C1=O , state its measured pIC50.
8.72

1. Cc1cc(-c2ccn3nc(N)cc3n2)cc2c1C(=O)N([C@@H](C)C1CC1)C2
2. CC(C)c1cc(-c2c(N)nn3ccc(-c4cc5c(c(C(F)(F)F)c4)C(=O)N([C@@H](C)C4CC4)C5)nc23)ccc1C(=O)O
3. Cc1cc(-c2ccc3ncc(-c4cnn(C)c4)n3n2)cc2c1C(=O)N([C@@H](C)C1CC1)C2
Parameters: sort_field (pIC50), sort_dir (desc). Please write the labels in the order that was asked for.
2, 3, 1
(2: 9.00, 3: 7.82, 1: 7.22)

----------
Target: Phosphatidylinositol 4,5-bisphosphate 3-kinase catalytic subunit gamma isoform (Homo sapiens, UniProt P48736)
pIC50: −log10 of the molar value.
quantity: pIC50

Example compounds with recorded pIC50:
Using the record for CC(=O)Nc1nn2ccc(-c3cc(C)c4c(c3)CN([C@@H](C)C3CC3)C4=O)nc2c1-c1cnn(C)c1 , state its measured pIC50.
5.82

Using the record for Cc1cc(-c2ccn3nc(N)c(-c4ccc(CC(=O)O)cc4)c3n2)cc2c1C(=O)N([C@@H](C)C1CC1)C2 , state its measured pIC50.
6.06

Using the record for Cc1cc(-c2ccn3ncc(-c4cnn(C)c4)c3n2)cc2c1C(=O)N([C@@H](C)C1CC1)C2 , state its measured pIC50.
6.52

Using the record for Cc1cc(-c2ccc3nc(NC(=O)N4CCC[C@H]4C(N)=O)cn3n2)cc2c1C(=O)N([C@@H](C)C1CC1)C2 , state its measured pIC50.
6.34

Using the record for Cc1cc(-c2ccn3nc(N)c(-c4ccncn4)c3n2)cc2c1C(=O)N([C@@H](C)C1CC1)C2 , state its measured pIC50.
6.26

P. Cc1cc(-c2ccn3nc(N)c(-c4nc[nH]n4)c3n2)cc2c1C(=O)N([C@@H](C)C1CC1)C2
Q. Cc1cc(-c2ccn3nc(N)nc3c2)cc2c1C(=O)N([C@@H](C)C1CC1)C2
R. CC(=O)Nc1nc2cc(-c3cc(C)c4c(c3)CN([C@@H](C)C3CC3)C4=O)ccc2[nH]1 (racemic)
S. Cc1cc(-c2ccc3nc(NC(=O)C(C)C)cn3n2)cc2c1C(=O)N([C@@H](C)C1CC1)C2
Parameters: sort_field (pIC50), sort_dir (desc). Please write the labels in the order that was asked for.
P, R, Q, S

----------
Biological target: PI3-kinase p110-alpha/p85-alpha (Homo sapiens)
Sequence (P27986 whole entry): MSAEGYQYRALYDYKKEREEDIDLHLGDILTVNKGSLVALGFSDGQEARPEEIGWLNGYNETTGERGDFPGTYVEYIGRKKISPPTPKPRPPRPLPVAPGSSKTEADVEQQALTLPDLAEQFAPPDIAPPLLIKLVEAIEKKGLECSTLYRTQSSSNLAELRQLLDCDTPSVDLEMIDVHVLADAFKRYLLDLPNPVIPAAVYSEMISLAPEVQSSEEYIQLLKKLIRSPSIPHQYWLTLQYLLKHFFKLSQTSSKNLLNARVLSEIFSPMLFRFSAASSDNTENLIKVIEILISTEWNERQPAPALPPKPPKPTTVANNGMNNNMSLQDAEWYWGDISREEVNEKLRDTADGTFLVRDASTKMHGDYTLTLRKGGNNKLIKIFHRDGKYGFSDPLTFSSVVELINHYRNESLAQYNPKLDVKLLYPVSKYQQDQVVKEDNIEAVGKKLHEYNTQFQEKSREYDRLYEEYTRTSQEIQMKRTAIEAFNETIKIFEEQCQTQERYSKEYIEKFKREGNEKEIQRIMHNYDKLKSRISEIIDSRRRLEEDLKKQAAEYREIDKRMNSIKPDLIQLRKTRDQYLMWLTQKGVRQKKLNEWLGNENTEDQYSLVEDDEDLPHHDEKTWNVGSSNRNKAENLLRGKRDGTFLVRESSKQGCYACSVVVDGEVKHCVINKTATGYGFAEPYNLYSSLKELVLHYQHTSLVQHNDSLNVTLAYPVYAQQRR
Sequence (P42336 whole entry): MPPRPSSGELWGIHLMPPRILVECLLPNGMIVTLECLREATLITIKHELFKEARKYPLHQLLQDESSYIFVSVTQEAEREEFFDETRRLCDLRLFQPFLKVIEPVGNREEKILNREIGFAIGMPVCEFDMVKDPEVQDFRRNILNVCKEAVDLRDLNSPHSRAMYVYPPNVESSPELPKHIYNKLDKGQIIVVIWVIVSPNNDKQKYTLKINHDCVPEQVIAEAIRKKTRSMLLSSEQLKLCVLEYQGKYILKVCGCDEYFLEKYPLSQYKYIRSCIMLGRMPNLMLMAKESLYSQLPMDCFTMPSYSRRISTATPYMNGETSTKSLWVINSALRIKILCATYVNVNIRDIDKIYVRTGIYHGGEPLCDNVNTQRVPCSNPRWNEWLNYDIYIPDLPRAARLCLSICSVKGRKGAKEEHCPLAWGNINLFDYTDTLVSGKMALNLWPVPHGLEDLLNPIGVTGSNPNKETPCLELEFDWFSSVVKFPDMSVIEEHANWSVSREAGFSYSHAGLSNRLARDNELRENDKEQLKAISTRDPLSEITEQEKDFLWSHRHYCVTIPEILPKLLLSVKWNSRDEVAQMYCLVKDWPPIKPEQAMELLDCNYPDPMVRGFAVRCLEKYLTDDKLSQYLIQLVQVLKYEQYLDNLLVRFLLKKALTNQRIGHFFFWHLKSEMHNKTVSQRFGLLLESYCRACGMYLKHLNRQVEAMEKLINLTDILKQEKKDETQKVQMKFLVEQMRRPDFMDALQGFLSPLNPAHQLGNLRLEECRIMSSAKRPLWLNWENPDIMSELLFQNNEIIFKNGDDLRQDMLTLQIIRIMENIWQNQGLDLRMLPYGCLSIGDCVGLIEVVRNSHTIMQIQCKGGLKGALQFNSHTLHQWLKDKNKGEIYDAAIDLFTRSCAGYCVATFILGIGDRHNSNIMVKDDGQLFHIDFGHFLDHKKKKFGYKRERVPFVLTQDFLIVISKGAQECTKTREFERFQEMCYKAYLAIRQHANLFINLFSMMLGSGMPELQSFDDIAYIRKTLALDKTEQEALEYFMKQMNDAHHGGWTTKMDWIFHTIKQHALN
quantity: IC50 (µM)

Using the record for CC(=O)Nc1cc2nc(-c3cc4c(c(NS(C)(=O)=O)c3)C(=O)N([C@@H](C)C3CC3)C4)ccn2n1 , state its measured IC50.
8.97

a. Cc1cc(-c2ccn3nc(N)c(-c4ccn[nH]4)c3n2)cc2c1C(=O)N([C@@H](C)C1CC1)C2
b. Cc1cc(-c2ccn3nc(N)c(-c4cnn(CCO)c4)c3n2)cc2c1C(=O)N([C@@H](C)C1CC1)C2
Pick one, a or b : lowest reported IC50. Respond with the label that goes with your answer.
b

I. CC(C)c1cc(-c2cnn3ccc(-c4cc5c(c(C(F)(F)F)c4)C(=O)N([C@@H](C)C4CC4)C5)nc23)ccc1C(=O)O
II. Cc1cc(-c2ccn3nc(N)c(-c4ccc(CC(=O)O)cc4)c3n2)cc2c1C(=O)N([C@@H](C)C1CC1)C2
III. CNS(=O)(=O)c1cc(-c2ccn3nc(NC(C)=O)cc3n2)cc2c1C(=O)N([C@@H](C)C1CC1)C2
IV. Cc1cc(-c2ccn3nc(N)c(-c4ccncn4)c3n2)cc2c1C(=O)N([C@@H](C)C1CC1)C2
Ascending by IC50, please: list the molecules accordingly. Please write the labels in the order that was asked for.
I, IV, II, III

----------
Reported IC50 for target or system PI3-kinase p110-delta/p85-alpha (Homo sapiens, UniProt O00329), by entry.
quantity: IC50 (nM)

Example molecules with recorded IC50:
Using the record for CC(=O)Nc1cc2nc(-c3cc4c(c(C(F)(F)F)c3)C(=O)N([C@@H](C)C3CC3)C4)ccn2n1 , state its measured IC50.
2610

Using the record for Cc1cc(-c2ccn3nc(N)c(-c4ccn[nH]4)c3n2)cc2c1C(=O)N([C@@H](C)C1CC1)C2 , state its measured IC50.
2690

P. Cc1cc(-c2ccc3ncc(-c4cnn(C)c4)n3n2)cc2c1C(=O)N([C@@H](C)C1CC1)C2
Q. Cc1cc(-c2ccn3nc(N)c(-c4cnn(CCO)c4)c3n2)cc2c1C(=O)N([C@@H](C)C1CC1)C2
R. CC(C)c1cc(-c2cnn3ccc(-c4cc5c(c(C(F)(F)F)c4)C(=O)N([C@@H](C)C4CC4)C5)nc23)ccc1C(=O)O
Parameters: sort_field (IC50), sort_dir (desc). Please write the labels in the order that was asked for.
P, Q, R

----------
Target: Phosphatidylinositol 4,5-bisphosphate 3-kinase catalytic subunit gamma isoform (Homo sapiens, UniProt P48736)
pIC50: −log10 of the molar value.
quantity: pIC50

Example compounds with recorded pIC50:
Using the record for CC(=O)Nc1cc2nc(-c3cc(C)c4c(c3)CN([C@@H](C)C3CC3)C4=O)ccn2n1 , state its measured pIC50.
6.62

Using the record for CC(=O)Nc1nc2ccc(-c3cc(C)c4c(c3)CN([C@@H](C)C3CC3)C4=O)cn2n1 (racemic) , state its measured pIC50.
5.52

I. CC(=O)Nc1cc2nc(-c3cc4c(c(NS(C)(=O)=O)c3)C(=O)N([C@@H](C)C3CC3)C4)ccn2n1
II. CC(C)c1cc(-c2c(N)nn3ccc(-c4cc5c(c(C(F)(F)F)c4)C(=O)N([C@@H](C)C4CC4)C5)nc23)ccc1C(=O)O
I need your help: which of the pair I , II has higher pIC50? Respond with the label that goes with your answer.
II
